// Relative N2O Yield (360 minutes incubation) lookup, one value per entry
assay: HNO production determined via N2O quantification (GC headspace analysis); assay type: physicochemical; conditions: PBS, 37° C., 360 minutes incubation

Compound	Measured Value
Cc1ccc(S(=O)(=O)NO)c(F)c1 [Compound 14]	70%
CC(=O)N1CCc2cc(Br)c(S(=O)(=O)NO)cc21 [Compound 9]	71%

The recorded Relative N2O Yield (360 minutes incubation) for O=S(=O)(NO)c1ccc2nsnc2c1 [Compound 15] is 71%

The recorded Relative N2O Yield (360 minutes incubation) for O=S(=O)(NO)c1ccc(F)c(Cl)c1 [Compound 87] is 79%

---

test: In vitro stability (half-life) in dog plasma; type: in vitro ADME; details: male, dog, plasma, pH 7.4, 5 μM, dog plasma pH 7.4 with anticoagulant, 37° C.; read-out: T1/2 (minutes) Dog
Please note: 1 (yes) applies when half-life at 5 μM is 40 min or greater, and 0 (no) applies otherwise.

Consider the worked cases shown below.
Input Smiles	Class Assignment
Cc1oncc1S(=O)(=O)NO	0 (no)
Cc1cc(S(=O)(=O)NO)c(C(F)(F)F)o1	1 (yes)
O=S(=O)(NO)c1ccc(F)c(Cl)c1	0 (no)
Cn1ccc(S(=O)(=O)NO)n1	1 (yes)

For the next question, use this molecule.
Input line: Could you verify whether the entry "Cc1ccc(S(=O)(=O)NO)s1" shows half-life at 5 μM of no less than 40 min?
Output line: 1 (yes)
